test system: Pseudomonas aeruginosa; experiment: Antibacterial activity against Pseudomonas aeruginosa MTCC 741 assessed as inhibition of bacterial growth by agar well diffusion assay; assay type: functional
READOUT NAME: MIC (µg/mL)

# ENTRY SMILES, REPORTED MEASUREMENT
measured = [
    ("O=C1c2cccc3cccc(c23)C(=O)N1c1nc(-c2cc3cc(Cl)ccc3oc2=O)cs1", 18.8),
    ("O=C1c2ccc3c4c(ccc(c24)C(=O)N1c1nc(-c2cc4cc(Br)ccc4oc2=O)cs1)C(=O)N(c1nc(-c2cc4cc(Br)ccc4oc2=O)cs1)C3=O", 18.8),
    ("O=C1c2ccc3c4c(ccc(c24)C(=O)N1c1nc(-c2cc4cc(Cl)cc(Cl)c4oc2=O)cs1)C(=O)N(c1nc(-c2cc4cc(Cl)cc(Cl)c4oc2=O)cs1)C3=O", 18.8),
    ("O=C1c2cccc3cccc(c23)C(=O)N1c1nc(-c2cc3cc(Br)ccc3oc2=O)cs1", 18.8),
    ("O=C1c2ccc3c4c(ccc(c24)C(=O)N1c1nc(-c2cc4cc(Cl)ccc4oc2=O)cs1)C(=O)N(c1nc(-c2cc4cc(Cl)ccc4oc2=O)cs1)C3=O", 18.8),
    ("O=C1c2cccc3cccc(c23)C(=O)N1c1nc(-c2cc3ccccc3oc2=O)cs1", 18.8),
    ("O=C1c2ccc3c4c(ccc(c24)C(=O)N1c1nc(-c2cc4ccccc4oc2=O)cs1)C(=O)N(c1nc(-c2cc4ccccc4oc2=O)cs1)C3=O", 18.8),
    ("O=C1c2cccc3cccc(c23)C(=O)N1c1nc(-c2cc3cc(Br)cc(Br)c3oc2=O)cs1", 18.8),
    ("O=C1c2cccc3cccc(c23)C(=O)N1c1nc(-c2cc3cc(Cl)cc(Cl)c3oc2=O)cs1", 18.8),
    ("COc1cccc2cc(-c3csc(N4C(=O)c5ccc6c7c(ccc(c57)C4=O)C(=O)N(c4nc(-c5cc7cccc(OC)c7oc5=O)cs4)C6=O)n3)c(=O)oc12", 18.8),
    ("COc1cccc2cc(-c3csc(N4C(=O)c5cccc6cccc(c56)C4=O)n3)c(=O)oc12", 18.8),
    ("O=C1c2ccc3c4c(ccc(c24)C(=O)N1c1nc(-c2cc4cc(Br)cc(Br)c4oc2=O)cs1)C(=O)N(c1nc(-c2cc4cc(Br)cc(Br)c4oc2=O)cs1)C3=O", 18.8),
    ("O=C(O)c1cn(C2CC2)c2cc(N3CCNCC3)c(F)cc2c1=O", 18.8),
]
